Assay: growth suppression of PTEN-deleted HCT116, pilot screen, cell-based, HCT116 clonal line, CellTiter-Glo (AID 824);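 note: 0% = 20 µM Hyamine control and 100% = vehicle cell control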
Details: 60 h, at 10 µM, active compounds read low
Records with an inconclusive call do not appear.
Measured viability values are reported for all entries that follow.
Use % as the unit, but write only the number.

>  <compound>
COc1cccc(CNC(=O)CN(c2cc(C)cc(C)c2)S(=O)(=O)c2c(C)noc2C)c1

>  <measure unit>
%

>  <viability>
90.4

$$$$
>  <compound>
CCC(C(=O)OC)n1cnc2c(nnn2-c2cccc(Cl)c2)c1=O (stereo not drawn)

>  <measure unit>
%

>  <viability>
92.1

$$$$

Lookup: Can you look up the measured viability of CCCCC(CC)CNC(=O)CCS(=O)(=O)c1cccc2nonc12 (stereo not drawn) for me?
Found: 91.4
